Below, each of the compounds is paired with its reported inhibition at 72 h, 10 µM value.
assay: Cytotoxicity against human HT-29 cells assessed as growth inhibition at 10 uM after 72 hrs by MTS assay relative to control; type: cell-based; details: read-out: GI

{"columns": ["compound", "inhibition at 72 h, 10 µM [%]"],
 "data": [
  ["O=C(NC12CC3CC(CC(C3)C1)C2)c1cc(-c2ccc(-c3ccccc3)nc2)on1", 0],
  ["O=C(NC12CC3CC(CC(C3)C1)C2)c1cc(-c2ccc(-c3cccc(CN4CCOCC4)c3)cc2)on1", 0],
  ["CN1CCN(C(=O)c2cccc(-c3ccc(-c4cc(C(=O)NC56CC7CC(CC(C7)C5)C6)no4)cc3)c2)CC1", 55],
  ["N#Cc1cccc(-c2ccc(-c3cc(C(=O)NC45CC6CC(CC(C6)C4)C5)no3)cc2)c1", 0],
  ["NC(=O)c1cccc(-c2ccc(-c3cc(C(=O)NC45CC6CC(CC(C6)C4)C5)no3)cc2)c1", 0],
  ["O=C(NC12CC3CC(CC(C3)C1)C2)c1cc(-c2ccc(-c3ccc(C(=O)N4CCOCC4)cc3)cc2)on1", 0],
  ["CN1CCN(Cc2cccc(-c3ccc(-c4cc(C(=O)NC56CC7CC(CC(C7)C5)C6)no4)cc3)c2)CC1", 97],
  ["O=C(NC12CC3CC(CC(C3)C1)C2)c1cc(-c2ccc(-c3ccc(CN4CCOCC4)cc3)cc2)on1", 0],
  ["COc1cccc(-c2ccc(-c3cc(C(=O)NC45CC6CC(CC(C6)C4)C5)no3)cc2)c1", 0],
  ["CN1CCN(C(=O)c2ccc(-c3ccc(-c4cc(C(=O)NC56CC7CC(CC(C7)C5)C6)no4)cn3)cc2)CC1", 0],
  ["O=C(NC12CC3CC(CC(C3)C1)C2)c1cc(-c2ccc(-c3ccncc3)cc2)on1", 1],
  ["NC(=O)c1cccc(-c2ccc(-c3cc(C(=O)NC45CC6CC(CC(C6)C4)C5)no3)cn2)c1", 14],
  ["COc1ccc(-c2ccc(-c3cc(C(=O)NC45CC6CC(CC(C6)C4)C5)no3)cc2)cc1OC", 7],
  ["CC(=O)c1ccc(-c2ccc(-c3cc(C(=O)NC45CC6CC(CC(C6)C4)C5)no3)cc2)cc1", 4],
  ["O=C(NC12CC3CC(CC(C3)C1)C2)c1cc(-c2ccc(-c3ccco3)cc2)on1", 0],
  ["CN1CCN(C(=O)c2ccc(-c3ccc(-c4cc(C(=O)NC56CC7CC(CC(C7)C5)C6)no4)cc3)cc2)CC1", 24],
  ["COc1cc(-c2ccc(-c3cc(C(=O)NC45CC6CC(CC(C6)C4)C5)no3)cc2)cc(OC)c1OC", 6],
  ["NC(=O)c1cccc(-c2cccc(OC(=O)NC3CCCCC3)c2)c1 [URB-597]", 0],
  ["NC(=O)c1ccc(-c2ccc(-c3cc(C(=O)NC45CC6CC(CC(C6)C4)C5)no3)cc2)cc1", 0],
  ["CC(=O)c1ccc(-c2ccc(-c3cc(C(=O)NC45CC6CC(CC(C6)C4)C5)no3)cn2)cc1", 0],
  ["O=C(NC12CC3CC(CC(C3)C1)C2)c1cc(-c2ccc(-c3ccncc3)nc2)on1", 0],
  ["COc1ccc(-c2ccc(-c3cc(C(=O)NC45CC6CC(CC(C6)C4)C5)no3)cc2)cc1", 0],
  ["O=C(NC12CC3CC(CC(C3)C1)C2)c1cc(-c2ccc(-c3ccc4c(c3)OCO4)cc2)on1", 0],
  ["CN1CCN(Cc2ccc(-c3ccc(-c4cc(C(=O)NC56CC7CC(CC(C7)C5)C6)no4)cc3)cc2)CC1", 90],
  ["O=C(NC12CC3CC(CC(C3)C1)C2)c1cc(-c2ccc(-c3ccc(C(=O)N4CCOCC4)cc3)nc2)on1", 0],
  ["CC(=O)c1cccc(-c2ccc(-c3cc(C(=O)NC45CC6CC(CC(C6)C4)C5)no3)cn2)c1", 0],
  ["CC(=O)c1cccc(-c2ccc(-c3cc(C(=O)NC45CC6CC(CC(C6)C4)C5)no3)cc2)c1", 1],
  ["O=C(NC12CC3CC(CC(C3)C1)C2)c1cc(-c2ccc(-c3cnc4ccccc4c3)cc2)on1", 0],
  ["O=C(NC12CC3CC(CC(C3)C1)C2)c1cc(-c2ccc(-c3cccc(C(=O)N4CCOCC4)c3)cc2)on1", 10],
  ["COc1ccccc1-c1ccc(-c2cc(C(=O)NC34CC5CC(CC(C5)C3)C4)no2)cc1", 2]
]}
